Entries with their measured IC50, system PARP7 (Homo sapiens):
measuredAttribute: IC50

>>> df
                                   molecule  measuredattribute      readoutvalue
0  O=c1[nH]nc(CN[C@H]2C[C@H](C(=O)N3C4CCC3CN(c3ncc(C(F)(F)F)cn3)C4)C2)cc1C(F)(F)F [Embodiment 3]               IC50      10 to 100 nM
1  CC(C)(N[C@H]1C[C@H](C(=O)N2CCN(c3ncc(C(F)(F)F)cc3C(N)=O)CC2)C1)c1cc(C(F)(F)F)c(=O)[nH]n1 [Embodiment 60]               IC50           < 10 nM
2  CN(Cc1cc(C(F)(F)F)c(=O)[nH]n1)[C@H]1C[C@H](C(=O)N2CCN(c3ncc(C(F)(F)F)cn3)CC2)C1 [Embodiment 34]               IC50      10 to 100 nM
3  O=c1[nH]cc(CN[C@H]2C[C@H](C(=O)N3CCN(c4ncc(C(F)(F)F)cn4)CC3)C2)cc1C(F)(F)F [Embodiment 13]               IC50      10 to 100 nM
4  O=C(C1CN(Cc2c[nH]c(=O)c(C(F)(F)F)c2)C1)N1CCN(c2cnc(C(F)(F)F)cn2)CC1 [Embodiment 29]               IC50      10 to 100 nM
5  O=C([C@H]1CC[C@H](NCc2c[nH]c(=O)c(C(F)(F)F)c2)C1)N1C2CCC1CN(c1ncc(C(F)(F)F)cn1)C2 [Embodiment 1]               IC50  1000 to 10000 nM

* * *

Measured IC50, listed per entry for reference.
Target: PARP7 (Homo sapiens)
Sequence (Q7Z3E1 1-657): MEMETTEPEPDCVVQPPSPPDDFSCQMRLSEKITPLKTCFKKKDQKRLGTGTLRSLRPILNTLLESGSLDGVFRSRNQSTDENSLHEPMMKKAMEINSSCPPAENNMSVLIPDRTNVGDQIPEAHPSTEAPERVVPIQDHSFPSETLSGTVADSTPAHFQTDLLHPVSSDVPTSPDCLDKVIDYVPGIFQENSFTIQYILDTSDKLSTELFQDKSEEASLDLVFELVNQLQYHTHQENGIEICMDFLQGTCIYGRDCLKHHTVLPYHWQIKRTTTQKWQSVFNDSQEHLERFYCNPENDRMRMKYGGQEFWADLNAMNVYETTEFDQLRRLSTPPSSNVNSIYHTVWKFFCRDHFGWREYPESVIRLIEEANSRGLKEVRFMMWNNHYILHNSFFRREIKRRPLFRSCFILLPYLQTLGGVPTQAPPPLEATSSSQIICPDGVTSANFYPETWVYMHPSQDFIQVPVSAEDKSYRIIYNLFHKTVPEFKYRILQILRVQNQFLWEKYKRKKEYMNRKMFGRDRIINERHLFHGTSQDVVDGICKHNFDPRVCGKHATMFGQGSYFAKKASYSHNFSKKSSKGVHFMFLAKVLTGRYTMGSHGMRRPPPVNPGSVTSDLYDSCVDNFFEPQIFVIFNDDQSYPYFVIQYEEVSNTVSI
measuredAttribute: IC50

                                   compound  measuredattribute    readoutvalue
0  O=C([C@H]1CCCN(Cc2c[nH]c(=O)c(C(F)(F)F)c2)C1)N1CCN(c2ncc(C(F)(F)F)cn2)CC1               IC50  100 to 1000 nM
1  O=c1[nH]nc(CN[C@H]2C[C@@H](C(=O)N3CCN(c4ncc(C(F)(F)F)cn4)CC3)C2)cc1C(F)(F)F               IC50  100 to 1000 nM
2  O=C([C@@H]1CCCN(Cc2c[nH]c(=O)c(C(F)(F)F)c2)C1)N1CCN(c2ncc(C(F)(F)F)cn2)CC1               IC50    10 to 100 nM
3  O=c1[nH]nc(CN[C@H]2C[C@H](C(=O)N3CCN4c5ncc(C(F)(F)F)cc5COC[C@H]4C3)C2)cc1C(F)(F)F               IC50    10 to 100 nM
4  O=c1cc(OC2CCC2)c(CN[C@H]2C[C@H](C(=O)N3CCN(c4ncc(C(F)(F)F)cn4)CC3)C2)n[nH]1               IC50    10 to 100 nM
5  O=C(C1CN(Cc2cc(C(F)(F)F)c(=O)[nH]n2)C1)N1CCN2c3ncc(C(F)(F)F)cc3COC[C@@H]2C1               IC50    10 to 100 nM
6  O=c1[nH]cc(CN[C@H]2C[C@H](C(=O)N3CCN(c4ccc(C(F)(F)F)cn4)CC3)C2)cc1C(F)(F)F               IC50    10 to 100 nM
